assay: ATG_PXRE_CIS: Attagene CIS-FACTORIAL HepG2 Assay for human Pregnane X Receptor Element (PXRE) (AID 2282957); conditions: HepG2 Attagene CIS-FACTORIAL PXRE reporter, mRNA; actives raise or lower the signal
Activity calls are given as the source filed them. How the source made its calls: active means hit-call score of the fitted dose curve at least 0.9, where 1 is the maximum; inactive means score below 0.9.
Lab note: assign the record to one of active, inactive

Exercise: Would you mind telling me which call this test gave `CC(C)(O)C(=O)Nc1ccc([N+](=O)[O-])c(C(F)(F)F)c1` ?
Solution: active

Exercise: Would you mind telling me which call this test gave `CCCCCCCCCC[N+](C)(C)CCCCCCCCCC` ?
Solution: inactive

Exercise: Would you mind telling me which call this test gave `ClC1=C(Cl)[C@]2(Cl)[C@@H]3[C@@H](Cl)[C@H]4O[C@H]4[C@@H]3C1(Cl)C2(Cl)Cl` ?
Solution: active

Exercise: Would you mind telling me which call this test gave `Cc1cccc(C)c1N` ?
Solution: inactive

Exercise: Would you mind telling me which call this test gave `Cc1ccccc1[N+](=O)[O-]` ?
Solution: inactive

Exercise: Would you mind telling me which call this test gave `COS(=O)(=O)OC` ?
Solution: inactive

Exercise: Would you mind telling me which call this test gave `CCNc1nc(NC(C)C)nc(SC)n1` ?
Solution: active

Exercise: Would you mind telling me which call this test gave `O=C(O)C(F)(F)C(F)(F)C(F)(F)C(F)(F)C(F)(F)F` ?
Solution: inactive

Exercise: Would you mind telling me which call this test gave `ClC1=C(Cl)[C@]2(Cl)[C@@H]3[C@H]4C[C@H]([C@@H]5O[C@H]45)[C@@H]3[C@@]1(Cl)C2(Cl)Cl` ?
Solution: active

Exercise: Would you mind telling me which call this test gave `ClC1=C(Cl)[C@]2(Cl)[C@@H]3[C@@H]4C[C@@H]([C@H]5O[C@@H]45)[C@@H]3[C@@]1(Cl)C2(Cl)Cl` ?
Solution: active

Exercise: Would you mind telling me which call this test gave `CO/C=C(/C(=O)OC)c1ccccc1COc1cccc(C(F)(F)F)n1` ?
Solution: active

Exercise: Would you mind telling me which call this test gave `Nc1ccc(-c2ccc(N)cc2)cc1` ?
Solution: inactive

Exercise: Would you mind telling me which call this test gave `CCCN(CCC)N=O` ?
Solution: inactive

Exercise: Would you mind telling me which call this test gave Clc1ccc(C(c2ccccc2Cl)C(Cl)(Cl)Cl)cc1 (stereo unspecified) ?
Solution: active

Exercise: Would you mind telling me which call this test gave `Nn1cnnc1` ?
Solution: inactive

Exercise: Would you mind telling me which call this test gave `CC(C)(c1ccccc1)c1ccc(O)cc1` ?
Solution: active

Exercise: Would you mind telling me which call this test gave `CCSC(=O)N(CC)C1CCCCC1` ?
Solution: active

Exercise: Would you mind telling me which call this test gave `CCC(=O)O[C@H]1CC[C@H]2[C@@H]3CCC4=CC(=O)CC[C@]4(C)[C@H]3CC[C@]12C` ?
Solution: active

Exercise: Would you mind telling me which call this test gave `CCOC(=O)C(O)(c1ccc(Cl)cc1)c1ccc(Cl)cc1` ?
Solution: active

Exercise: Would you mind telling me which call this test gave `CCC(C)(CC)c1cc(NC(=O)c2c(OC)cccc2OC)on1` ?
Solution: active

Exercise: Would you mind telling me which call this test gave `c1cc2ccc3cccc4ccc(c1)c2c34` ?
Solution: active

Exercise: Would you mind telling me which call this test gave `Cc1ccccc1O` ?
Solution: inactive

Exercise: Would you mind telling me which call this test gave `CC(c1ccc(O)cc1)(c1ccc(O)cc1)c1ccc(O)cc1` ?
Solution: active

Exercise: Would you mind telling me which call this test gave `Clc1ccc(Cl)cc1` ?
Solution: inactive

Exercise: Would you mind telling me which call this test gave `CC#Cc1cc(C)nc(Nc2ccccc2)n1` ?
Solution: active

Exercise: Would you mind telling me which call this test gave `Cc1cccc([N+](=O)[O-])c1` ?
Solution: inactive
